Tested on: SARS2
Format: cell-based, SARS-CoV-2
conditionParameters: SARS2, 5 μM; 100=DMSO control
Rule: Screening data (Relative infection to DMSO controls) Average 5 μM under 90 gives NO, otherwise YES.

compound	studyTarget	assignedClass
COc1ccc(C2NC(=O)NC(C)=C2C(=O)NCc2ccccc2)cc1OC (stereo not shown) [SILCS48]	SARS2	NO
CCN(CC)CCN(Cc1ccccn1)Cc1ccc(C)o1 [SILCS36]	SARS2	YES
COc1ccc(-c2[nH]ncc2C(=O)NCC2CCCCC2)cc1OC [SILCS52]	SARS2	YES
Cc1cc(CN(CCN(C)C)Cc2ccncc2)sc1Br [SILCS14]	SARS2	YES
CC1=C(C(=O)NCC2CCCCC2)C(c2cc(C)c(Br)s2)NC(=O)N1 (stereo not shown) [SILCS68]	SARS2	NO
CCN(CC)CCN(Cc1ccccn1)C(=O)c1cccs1 [SILCS37]	SARS2	NO
COc1ccc(CNCCc2ccccc2F)c(OCC(O)CN2CCN(C)CC2)c1 (racemic) [SILCS41]	SARS2	NO
Cc1ccc(CN(CCN(C)C)Cc2ccc(C)s2)o1 [SILCS7]	SARS2	YES
CCN(CC)CCN(Cc1cccs1)C(=O)c1cccs1 [SILCS34]	SARS2	YES

Provenance of the data: patent US20240132484A1
